Biological target: AMP-activated protein kinase, AMPK (Homo sapiens) (UniProt P54646+O43741+P54619+Q9UGJ0+Q9Y478+Q13131+Q9UGI9)
Assay: AMP-dependent Kinase enzyme assay. An in vitro enzyme assay that detects ADP turnover that is directly proportional to AMPK activity. This uses naive AMPK that is activated during the assay with MK-8722
Format: functional
Parameters: scale not given: direction of the effect not stated beside the values
Conditions: 30 µM
ENDPOINT NAME: Percent Effect (%)
Report the figure in % without appending any unit label.

COMPOUND: CC(C)c1nn(CC(=O)N2CCCCC2)c(=O)c2c1cnn2C(C)(C)C
ENDPOINT NAME: Percent Effect
OBSERVED MEASUREMENT: -3.21

Exercise: // lookup Percent Effect for CN(C)CC1CSCCCN1C(=O)c1ccc(C(C)(C)C)cc1 (stereo unspecified)
Key: 2.24

Exercise: Would you mind telling me what Percent Effect value was observed for Nc1nccc(N2CCCC(CO)(CCOc3ccccc3)C2)n1 (stereo unspecified) ?
Key: -0.596

###

Molecular target: Tyrosyl-tRNA synthetase, putative (Trypanosoma cruzi (strain CL Brener)) (UniProt Q4DSP6)
Sequence (Q4DSP6 as listed by the source): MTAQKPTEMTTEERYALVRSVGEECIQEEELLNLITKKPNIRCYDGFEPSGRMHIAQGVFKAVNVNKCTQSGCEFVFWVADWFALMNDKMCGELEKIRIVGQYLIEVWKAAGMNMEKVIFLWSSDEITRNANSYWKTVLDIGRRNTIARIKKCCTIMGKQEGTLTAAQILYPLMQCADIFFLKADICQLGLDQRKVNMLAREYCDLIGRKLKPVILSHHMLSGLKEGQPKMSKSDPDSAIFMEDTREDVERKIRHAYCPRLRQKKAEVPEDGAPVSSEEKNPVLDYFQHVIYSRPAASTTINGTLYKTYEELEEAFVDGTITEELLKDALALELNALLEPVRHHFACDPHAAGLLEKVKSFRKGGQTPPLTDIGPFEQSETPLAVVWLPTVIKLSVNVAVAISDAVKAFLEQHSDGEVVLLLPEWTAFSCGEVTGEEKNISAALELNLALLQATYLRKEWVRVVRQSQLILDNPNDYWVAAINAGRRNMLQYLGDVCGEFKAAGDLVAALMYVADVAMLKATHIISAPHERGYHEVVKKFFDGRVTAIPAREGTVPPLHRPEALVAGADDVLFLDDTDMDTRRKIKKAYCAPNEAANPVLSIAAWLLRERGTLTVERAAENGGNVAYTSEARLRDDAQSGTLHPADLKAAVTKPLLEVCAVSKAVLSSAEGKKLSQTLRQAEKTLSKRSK
Test: Trypanosoma cruzi tyrosyl tRNA synthetase (TcYRS) _High Tyrosine SOP; note: in the data most compounds retested in dose-response had high values
Assay type: functional
Parameters: scale not given: direction of the effect not stated beside the values
Conditions: 30 µM
ENDPOINT NAME: Percent Effect (%)
Numeric only. Scale: %

Previously resolved entries follow.
COMPOUND: Cc1ccc(F)c(OC2(C(=O)O)CCN(C(=O)N3CCCC3)CC2)c1
UNITS TEXT: %
Percent Effect: 2.1

COMPOUND: CC(C)NC(=O)Cn1cc(-c2ccccc2)cn1
UNITS TEXT: %
Percent Effect: 4.17

COMPOUND: CNc1cccc(C2CCCN(C(=O)c3ccncc3)C2)n1 (stereo unspecified)
UNITS TEXT: %
Percent Effect: 6.45

COMPOUND: Cc1cc(CN(C)C(=O)c2cccc(N3CCCC3=O)c2)no1
UNITS TEXT: %
Percent Effect: 3.45

Exercise: Which Percent Effect is reported with Tyrosyl-tRNA synthetase, putative (Trypanosoma cruzi (strain CL Brener)) (UniProt Q4DSP6) for this entry: `CC[C@@H]1N(CC2CC2)CCC[C@]12CCC(=O)N2CCOC` ?
Key: 5.21

Exercise: Tell me reported Percent Effect for O=C1CC2(CCCCC2)CC(=O)N1CC(O)COCc1ccc(Cl)cc1 (stereo unspecified) , tested with Tyrosyl-tRNA synthetase, putative (Trypanosoma cruzi (strain CL Brener)) (UniProt Q4DSP6).
Key: -2.15

###

System: Trypanosoma cruzi
Experiment: Trypanosoma cruzi phosphomannomutase and mannose-1-phosphate guanylyltransferase assay
Format: functional
Set-up: scale not given: direction of the effect not stated beside the values
Conditions: 10 µM
ENDPOINT NAME: Percent Effect (%)
// return numeric value only (unit: %, not printed)

COMPOUND: Cc1ccc(C(=O)N2CCC3(CCN(C(=O)c4cccnc4)C3)CC2)o1
MEASURED TARGET: Trypanosoma cruzi
UNITS TEXT: %
Percent Effect: -3.62
--
COMPOUND: C=Cc1ccc(C(=O)N2CCCC(Nc3ccc(OC)cc3)C2)cc1 (stereo unspecified)
MEASURED TARGET: Trypanosoma cruzi
UNITS TEXT: %
Percent Effect: 5.41
--
COMPOUND: COCC(=O)N1CCC(c2nc3ccc(N4CCCC4)cn3n2)CC1
MEASURED TARGET: Trypanosoma cruzi
UNITS TEXT: %
Percent Effect: -4.96
--
COMPOUND: COC[C@]12COC[C@H]1CN(Cc1cc(OC)cc(OC)c1)C2
MEASURED TARGET: Trypanosoma cruzi
UNITS TEXT: %
Percent Effect: 4.59
--
COMPOUND: CN(C)S(=O)(=O)N1CC[C@@H]2CN(Cc3cnn(C)c3)C[C@@H]2C1
MEASURED TARGET: Trypanosoma cruzi
UNITS TEXT: %
Percent Effect: -4.63

Exercise: What does the record list as Percent Effect for CN(C)CC1CN(c2ncnc3[nH]ccc23)CCO1 (stereo unspecified) ?
Key: 0.103

Exercise: Quick one: Percent Effect for `CS(=O)(=O)CCC(=O)Nc1cnn(-c2ccccc2Cl)c1` ?
Key: 2.88

Exercise: Quick one: Percent Effect of `O=C(NCCn1ccc(-c2ccccn2)n1)C1CC1` ?
Key: -3.85

Exercise: Name the recorded Percent Effect for CN(C)C(=O)CC1CC2(CCN(C(=O)N(C)C)CC2)Oc2ccccc21 (stereo unspecified) .
Key: -4.79

Exercise: Fill in: Percent Effect of `CCCNC(=O)CNc1cc(C#N)ccc1OCC` is ___
Key: 4.82

Exercise: // Percent Effect lookup, key: `CSc1ncccc1C(=O)N1CCC(c2nc3c(C)cccc3[nH]2)CC1`
Key: 3.83

###

Target: Tyrosyl-tRNA synthetase, putative (Trypanosoma cruzi (strain CL Brener))
Test: Trypanosoma cruzi tyrosyl tRNA synthetase (TcYRS) _High Tyrosine SOP; note: in the data most compounds retested in dose-response had high values
Assay type: functional
Set-up: scale not given: direction of the effect not stated beside the values
Details: 30 µM
Percent Effect for assorted compounds
Provide only the numeric value, understood in %.

Past entries and their recorded results:
COMPOUND: CCn1ncnc1C(C)NC(=O)C1CCN(C(C)C)CC1 (configuration not stated)
UNITS TEXT: %
Percent Effect: 9.68

COMPOUND: CCN(CC)C(=O)Cn1ccc2cc(NC(=O)C3CC3)ccc21
UNITS TEXT: %
Percent Effect: 5.39

COMPOUND: Cc1ccc(CS(=O)(=O)N2CC[C@H]3[C@H]2CCN3C)cc1
UNITS TEXT: %
Percent Effect: 6.25

Exercise: Give recorded Percent Effect with Tyrosyl-tRNA synthetase, putative (Trypanosoma cruzi (strain CL Brener)) for the following compound: `CC(C)CCc1noc(CN2CCCN(C(=O)c3ccco3)CC2)n1`
Key: 3.12

Exercise: Provide value of Percent Effect for this record tested with Tyrosyl-tRNA synthetase, putative (Trypanosoma cruzi (strain CL Brener)): Cc1cccc(CNC2CCCc3c2cnn3C)c1 (configuration not stated)
Key: 0.493

Exercise: Requested read-out Percent Effect, target or system Tyrosyl-tRNA synthetase, putative (Trypanosoma cruzi (strain CL Brener)), entry `CC(C)N(C)Cc1cn2c(n1)CN(C(=O)Cc1ccsc1)CC2`
Key: 5.21

Exercise: Param readout = Percent Effect; param system = Tyrosyl-tRNA synthetase, putative (Trypanosoma cruzi (strain CL Brener)); param query = O=C(C1SCCc2sccc21)N1CCN(CCO)CC1 (configuration not stated) ; response: value
Key: -3.96

Exercise: Observed Percent Effect on Tyrosyl-tRNA synthetase, putative (Trypanosoma cruzi (strain CL Brener)) for `COc1c(CNCc2ccc(N(C)C)nc2)c(C(C)C)nn1C` , please.
Key: 5.39

Exercise: Lab note: need Percent Effect for Cc1ncsc1C(=O)NCCn1nc(C2CCNC2)c2cccnc21 (configuration not stated) on Tyrosyl-tRNA synthetase, putative (Trypanosoma cruzi (strain CL Brener)), anyone have it?
Key: 0

Exercise: Checklist item: Percent Effect tested on Tyrosyl-tRNA synthetase, putative (Trypanosoma cruzi (strain CL Brener)), entry CN(Cc1nc(N)c2ccccc2n1)CC1CCCN1c1cccnn1 (configuration not stated) , value?
Key: 6.67

Exercise: Hello, I am looking for reported Percent Effect with Tyrosyl-tRNA synthetase, putative (Trypanosoma cruzi (strain CL Brener)) for `Cc1ccc(C(=O)NS(=O)(=O)c2cc(Cl)ccc2Cl)c(=O)[nH]1` . Could you help?
Key: 5.94

Exercise: Record lookup: for Tyrosyl-tRNA synthetase, putative (Trypanosoma cruzi (strain CL Brener)), what Percent Effect belongs to `Cc1ccc(CN2Cc3c(C(=O)N(C)C)nn(C)c3C2)s1` ?
Key: 3.12

###

Target: Sialic acid-binding Ig-like lectin 9 (Homo sapiens) (UniProt Q9Y336)
Sequence (Q9Y336 whole entry): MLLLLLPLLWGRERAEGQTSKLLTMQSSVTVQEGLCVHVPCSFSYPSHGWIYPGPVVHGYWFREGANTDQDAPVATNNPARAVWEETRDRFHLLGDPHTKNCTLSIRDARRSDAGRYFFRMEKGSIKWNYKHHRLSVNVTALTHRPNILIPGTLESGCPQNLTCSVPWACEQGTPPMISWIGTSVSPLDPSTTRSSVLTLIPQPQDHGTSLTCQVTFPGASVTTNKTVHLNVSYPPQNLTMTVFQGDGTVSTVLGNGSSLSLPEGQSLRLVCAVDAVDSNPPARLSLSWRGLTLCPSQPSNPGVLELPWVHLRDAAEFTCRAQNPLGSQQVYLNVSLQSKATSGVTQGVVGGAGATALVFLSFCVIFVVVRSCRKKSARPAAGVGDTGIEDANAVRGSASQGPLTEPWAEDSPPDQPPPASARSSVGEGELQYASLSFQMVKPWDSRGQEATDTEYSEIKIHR
Assay: Hs-Siglec9 ALPHAscreen SOP 20170721
Set-up: scale not given: direction of the effect not stated beside the values
Conditions: 10 µM
ENDPOINT NAME: Percent Effect (%)
Express it in %; write the number only.

Recorded Percent Effect, per entry:
COMPOUND: c1cc2c(cc1C1CCCN1Cc1nnnn1C1CC1)OCCO2 (configuration not stated)
MEASURED TARGET: Sialic acid-binding Ig-like lectin 9 (Homo sapiens) (UniProt Q9Y336)
OBSERVED MEASUREMENT: 29.5

COMPOUND: COc1ccccc1CNC(=O)C1=NN(c2ccc(C)cc2)C(=O)CN1
MEASURED TARGET: Sialic acid-binding Ig-like lectin 9 (Homo sapiens) (UniProt Q9Y336)
OBSERVED MEASUREMENT: 34.6

COMPOUND: COc1c(CNC(c2nccn2C)C(C)C)c(C)nn1C (configuration not stated)
MEASURED TARGET: Sialic acid-binding Ig-like lectin 9 (Homo sapiens) (UniProt Q9Y336)
OBSERVED MEASUREMENT: 13.8

COMPOUND: COc1ccccc1OCc1cc(C(=O)N2CC=CC2C(C)C)n[nH]1 (configuration not stated)
MEASURED TARGET: Sialic acid-binding Ig-like lectin 9 (Homo sapiens) (UniProt Q9Y336)
OBSERVED MEASUREMENT: 9.42

Exercise: # input compound: `CN(c1ccc(C(C)(C)C)cc1)S(=O)(=O)c1cc(C(=O)O)cs1` ; wanted: its Percent Effect
Key: 8.29

Exercise: Form field: reported Percent Effect of `N#Cc1cccnc1NCc1cccnc1N1CCC(C(N)=O)CC1`
Key: 8.48

Exercise: Which Percent Effect is reported for this compound? `COC(=O)c1ccccc1NC(=O)c1nc2ccccc2n(C)c1=O`
Key: -0.871

Exercise: Give its Percent Effect value. Item: `CS(=O)(=O)CCSc1cccc(C#N)c1`
Key: -5.6

Exercise: Would you mind telling me what Percent Effect value was observed for `CCn1nccc1CNC(=O)NC1CCCCC1` ?
Key: -2.52

Exercise: Look up Percent Effect: `c1ccc(-c2nnc(CNCCn3cccn3)o2)cc1`
Key: -1.76

Exercise: I'd like to know its Percent Effect. The compound in question is `Cc1ncsc1CN1C[C@@H](OCC2CC2)[C@H]2OCCC[C@H]21`
Key: 32.2

Exercise: Please give the measured Percent Effect for this compound: `CS(=O)(=O)Cc1ccc(CNC(=O)c2cccnc2O)cc1`
Key: 5.03
